These measurements were taken from paper PMC9482650.

assay_target: T1, PTPN13_1, Q12923
T1 sequence (Q12923 1088-1188, limits assumed, looked up): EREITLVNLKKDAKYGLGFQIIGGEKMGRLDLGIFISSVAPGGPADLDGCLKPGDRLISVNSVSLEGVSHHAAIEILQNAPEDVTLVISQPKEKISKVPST
protocol: holdup assay
Set-up: key: below the threshold = too weak to quantify, mostly under pKd 3.1 to 4
condition_context: plain residues with an end cap or a label only (N-terminal biotin on a linker: ttds)

{"binder": "GQDSREETQL [KCNT2, Q6UVM3]", "pKd": "below the threshold"}
{"binder": "VLRLQSETSV [VANGL1, Q8TAA9]", "pKd": "below the threshold"}
{"binder": "ERKLSSESQV [LRP4, O75096]", "pKd": "below the threshold"}
{"binder": "TVASEKESVM [SLC1A5, Q15758]", "pKd": "below the threshold"}
{"binder": "PKTPPTDTSV [KIR3DL3, Q8N743]", "pKd": "below the threshold"}
{"binder": "SRPQRTQTQV [HPV67-E6, A4U7F2]", "pKd": "below the threshold"}
{"binder": "IDNDTESTAL [ARHGAP17, Q68EM7]", "pKd": "below the threshold"}
{"binder": "SVWLRKETRV [CYSLTR2, Q9NS75]", "pKd": 3.43}
{"binder": "IYVPEAQTRL [DLGAP4, Q9Y2H0]", "pKd": "below the threshold"}
{"binder": "SSRTRRETQL [HPV16-E6, P03126]", "pKd": 3.56}
{"binder": "STLTIFETAL [ABCC4, O15439]", "pKd": "below the threshold"}
{"binder": "QSARYRDTEL [TJP2, Q9UDY2]", "pKd": "below the threshold"}
{"binder": "RSLEEEESQL [GRASP, Q7Z6J2]", "pKd": 3.63}
